target-entity: glucocorticoid receptors (GR) in SW1353/MMTV-5 cells (Homo sapiens)
Construct: contains endogenous glucocorticoid receptors; endogenous in cells
method-description: GR functional assay using SW1353/MMTV-5 cells (MMTV-luciferase reporter)
Measured Ki by item
assay-endpoint: Ki

INSERT INTO measurements (smiles_string, assay_endpoint, result) VALUES
  ('CN(CCO)C[C@]12Cc3cnn(-c4ccc(F)cc4)c3C=C1CCN(S(=O)(=O)c1ccc(N3CCOCC3)nc1)C2', 'Ki', '0.01 to 0.05 µM'),
  ('O=S(=O)(c1ccc(N2CCOCC2)nc1)N1CCC2=Cc3c(cnn3-c3ccc(F)cc3)C[C@]2(COC(F)F)C1', 'Ki', '0.01 to 0.05 µM'),
  ('CCOC[C@]12Cc3cnn(-c4ccc(F)cc4)c3C=C1CCN(S(=O)(=O)c1ccc(NC)nc1)C2', 'Ki', '0.01 to 0.05 µM'),
  ('O=C(OCC1CC1)[C@]12Cc3cnn(-c4ccc(F)cc4)c3C=C1CCN(S(=O)(=O)c1ccc(N3CCOCC3)nc1)C2', 'Ki', '< 0.01 µM');

---

target-entity: glucocorticoid receptors (GR) in SW1353/MMTV-5 cells (Homo sapiens, UniProt P04150)
Construct: contains endogenous glucocorticoid receptors; endogenous in cells
Sequence (P04150 whole entry): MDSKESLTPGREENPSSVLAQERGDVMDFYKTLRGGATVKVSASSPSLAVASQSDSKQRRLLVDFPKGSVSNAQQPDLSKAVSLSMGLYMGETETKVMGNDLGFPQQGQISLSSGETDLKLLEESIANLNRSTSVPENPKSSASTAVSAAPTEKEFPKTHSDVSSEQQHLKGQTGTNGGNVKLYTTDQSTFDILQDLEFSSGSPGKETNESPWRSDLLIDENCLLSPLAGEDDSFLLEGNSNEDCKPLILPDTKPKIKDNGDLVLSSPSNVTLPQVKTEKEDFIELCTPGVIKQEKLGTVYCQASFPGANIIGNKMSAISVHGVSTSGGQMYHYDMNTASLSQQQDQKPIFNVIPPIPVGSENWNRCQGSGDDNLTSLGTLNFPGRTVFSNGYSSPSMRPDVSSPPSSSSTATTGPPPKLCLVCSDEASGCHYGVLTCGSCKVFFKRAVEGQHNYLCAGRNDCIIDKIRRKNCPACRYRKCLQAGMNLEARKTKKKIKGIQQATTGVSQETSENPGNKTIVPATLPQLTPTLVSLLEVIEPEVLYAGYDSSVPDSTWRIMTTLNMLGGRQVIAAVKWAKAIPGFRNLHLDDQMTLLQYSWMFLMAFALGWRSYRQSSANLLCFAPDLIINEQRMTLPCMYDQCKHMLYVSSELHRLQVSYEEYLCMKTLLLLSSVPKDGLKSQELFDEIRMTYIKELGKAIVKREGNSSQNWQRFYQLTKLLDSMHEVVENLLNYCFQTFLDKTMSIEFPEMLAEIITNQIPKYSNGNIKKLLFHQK
method-description: GR functional assay using SW1353/MMTV-5 cells (MMTV-luciferase reporter)
Measured Ki by item
assay-endpoint: Ki

INSERT INTO results (molecule, result) VALUES
  ('COC[C@]12Cc3cnn(-c4ccc(F)cc4)c3C=C1CCN(S(=O)(=O)c1ccc(N(C)C)nc1)C2 [Example 10]', '10 to 50 nM'),
  ('COC[C@]12Cc3cnn(-c4ccc(F)cc4)c3C=C1CCN(S(=O)(=O)c1cncc(N3CC[C@@H](O)C3)c1)C2 [Example 38]', '10 to 50 nM'),
  ('COC[C@]12Cc3cnn(-c4ccc(F)cc4)c3C=C1CCN(S(=O)(=O)c1ccnc(N3CC[C@@H](O)C3)c1)C2 [Example 43]', '> 50 nM'),
  ('COC[C@]12Cc3cnn(-c4ccc(F)cc4)c3C=C1CCN(S(=O)(=O)c1ccc(N3CCOCC3)nc1)C2 [Example 14]', '10 to 50 nM'),
  ('COC[C@]12Cc3cnn(-c4ccc(F)cc4)c3C=C1CCN(S(=O)(=O)c1ccc(N3CCNCC3)nc1)C2 [Example 18]', '> 50 nM'),
  ('COC[C@]12Cc3cnn(-c4ccc(F)cc4)c3C=C1CCN(S(=O)(=O)c1ccc(N3CC[C@@H](O)C3)nc1)C2 [Example 21]', '> 50 nM'),
  ('CCOC[C@]12Cc3cnn(-c4ccc(F)cc4)c3C=C1CCN(S(=O)(=O)c1ccc(N(C)C)nc1)C2 [Example 8]', '< 10 nM'),
  ('O=S(=O)(c1ccc(N2CC(O)C2)nc1)N1CCC2=Cc3c(cnn3-c3ccc(F)cc3)C[C@]2(COCC2CC2)C1 [Example 31]', '10 to 50 nM'),
  ('O=S(=O)(c1ccc(N2CC[C@@H](O)C2)nc1)N1CCC2=Cc3c(cnn3-c3ccc(F)cc3)C[C@]2(COCC2CC2)C1 [Example 28]', '10 to 50 nM'),
  ('CC1(COC(=O)[C@]23Cc4cnn(-c5ccc(F)cc5)c4C=C2CCN(S(=O)(=O)c2ccc(N4CCOCC4)nc2)C3)COC1 [Example 54]', '> 50 nM'),
  ('O=S(=O)(c1ccc(N2CCCC2)nc1)N1CCC2=Cc3c(cnn3-c3ccc(F)cc3)C[C@]2(COCC2CC2)C1 [Example 25]', '< 10 nM'),
  ('COC[C@]12Cc3cnn(-c4ccc(F)cc4)c3C=C1CCN(S(=O)(=O)c1cncc(N3CC[C@@H](F)C3)c1)C2 [Example 40]', '< 10 nM'),
  ('O=S(=O)(c1ccc(N2CCOCC2)nc1)N1CCC2=Cc3c(cnn3-c3ccc(F)cc3)C[C@]2(CO)C1 [Example 1d]', '> 50 nM'),
  ('COC[C@]12Cc3cnn(-c4ccc(F)cc4)c3C=C1CCN(S(=O)(=O)c1ccc(N3CC[C@@H](F)C3)nc1)C2 [Example 20]', '10 to 50 nM'),
  ('COc1ccc(S(=O)(=O)N2CCC3=Cc4c(cnn4-c4ccc(F)cc4)C[C@]3(C(=O)OCC3CCC3)C2)cn1 [Example 59]', '< 10 nM');

---

target-entity: Human Recombinant Glucocorticoid Receptor (Homo sapiens)
Construct: This GR was a full-length steroid hormone receptor likely to be associated with heat-shock and other endogenous proteins
method-description: Glucocorticoid receptor binding displacement assay with 3H-dexamethasone
condition: displacement of 2.5 nM 3H-dexamethasone; Ki from IC50 by Cheng-Prusoff; read-out: GR Binding Ki
Procedure: The source of the receptor was recombinant baculovirus-infected insect cells. This GR was a full-length steroid hormone receptor likely to be associated with heat-shock and other endogenous proteins. […] After 2.5 hrs incubation, unbound counts were removed with dextran coated charcoal (DCC) as follows: 25 μl of DCC solution (10% DCC in assay buffer) was added to all wells and mixed (total volume 225 μl). […] The plate was vigorously shaken for approx. 10 minutes and counted on Topcount. […]
assay-endpoint: Ki

INSERT INTO assay_data (compound, result) VALUES
  ('COC[C@]12Cc3cnn(-c4ccc(F)cc4)c3C=C1CCN(S(=O)(=O)c1ccc(N3CC[C@H](O)C3)nc1)C2', '> 1 nM'),
  ('O=S(=O)(c1ccc(N2CC[C@@H](O)C2)nc1)N1CCC2=Cc3c(cnn3-c3ccc(F)cc3)C[C@]2(COCC2CC2)C1', '< 0.5 nM'),
  ('COC[C@]12Cc3cnn(-c4ccc(F)cc4)c3C=C1CCN(S(=O)(=O)c1ccnc(N3CC[C@@H](O)C3)c1)C2', '> 1 nM'),
  ('O=S(=O)(c1ccc(N2CC[C@@H](F)C2)nc1)N1CCC2=Cc3c(cnn3-c3ccc(F)cc3)C[C@]2(COCCO)C1', '> 1 nM'),
  ('COC[C@]12Cc3cnn(-c4ccc(F)cc4)c3C=C1CCN(S(=O)(=O)c1ccc(N(C)C)nc1)C2', '0.5 to 1 nM'),
  ('COC[C@]12Cc3cnn(-c4ccc(F)cc4)c3C=C1CCN(S(=O)(=O)c1cncc(N3CC[C@@H](F)C3)c1)C2', '> 1 nM'),
  ('Cc1cc(COC(=O)[C@]23Cc4cnn(-c5ccc(F)cc5)c4C=C2CCN(S(=O)(=O)c2ccc(N4CC[C@@H](F)C4)nc2)C3)no1', '0.5 to 1 nM'),
  ('O=C(OC1CCC1)[C@]12Cc3cnn(-c4ccc(F)cc4)c3C=C1CCN(S(=O)(=O)c1ccc(N3CCOCC3)nc1)C2', '0.5 to 1 nM'),
  ('CC1(COC(=O)[C@]23Cc4cnn(-c5ccc(F)cc5)c4C=C2CCN(S(=O)(=O)c2ccc(N4CCOCC4)nc2)C3)COC1', '> 1 nM'),
  ('CC(C)OC(=O)[C@]12Cc3cnn(-c4ccc(F)cc4)c3C=C1CCN(S(=O)(=O)c1ccc(N3CCOCC3)nc1)C2', '< 0.5 nM'),
  ('COC[C@]12Cc3cnn(-c4ccc(F)cc4)c3C=C1CCN(S(=O)(=O)c1cncc(N3CC[C@H](F)C3)c1)C2', '0.5 to 1 nM'),
  ('O=S(=O)(c1ccc(N2CCOCC2)nc1)N1CCC2=Cc3c(cnn3-c3ccc(F)cc3)C[C@]2(COC(F)F)C1', '> 1 nM'),
  ('CN(C)CCOC(=O)[C@]12Cc3cnn(-c4ccc(F)cc4)c3C=C1CCN(S(=O)(=O)c1ccc(N3CCOCC3)nc1)C2', '> 1 nM'),
  ('COC[C@]12Cc3cnn(-c4ccc(F)cc4)c3C=C1CCN(S(=O)(=O)c1cncc(N3CC(F)C3)c1)C2', '0.5 to 1 nM'),
  ('COc1ccc(S(=O)(=O)N2CCC3=Cc4c(cnn4-c4ccc(F)cc4)C[C@]3(C(=O)OCC3CCC3)C2)cn1', '0.5 to 1 nM'),
  ('O=C(OCC1CC(O)C1)[C@]12Cc3cnn(-c4ccc(F)cc4)c3C=C1CCN(S(=O)(=O)c1ccc(N3CC[C@@H](F)C3)nc1)C2 (some centres unmarked)', '> 1 nM'),
  ('COC[C@]12Cc3cnn(-c4ccc(F)cc4)c3C=C1CCN(S(=O)(=O)c1ccc(N3CCCC3)nc1)C2', '0.5 to 1 nM');

Each recorded value in this set is attributed to patent US8598154B2.
